biological target: Indoleamine 2,3-dioxygenase 1 (Homo sapiens); experiment: Inhibition of human IDO1 expressed in Escherichia coli Rosetta using tryptophan as substrate incubated for 1 hr by methylene blue based assay
Sequence (P14902 whole entry): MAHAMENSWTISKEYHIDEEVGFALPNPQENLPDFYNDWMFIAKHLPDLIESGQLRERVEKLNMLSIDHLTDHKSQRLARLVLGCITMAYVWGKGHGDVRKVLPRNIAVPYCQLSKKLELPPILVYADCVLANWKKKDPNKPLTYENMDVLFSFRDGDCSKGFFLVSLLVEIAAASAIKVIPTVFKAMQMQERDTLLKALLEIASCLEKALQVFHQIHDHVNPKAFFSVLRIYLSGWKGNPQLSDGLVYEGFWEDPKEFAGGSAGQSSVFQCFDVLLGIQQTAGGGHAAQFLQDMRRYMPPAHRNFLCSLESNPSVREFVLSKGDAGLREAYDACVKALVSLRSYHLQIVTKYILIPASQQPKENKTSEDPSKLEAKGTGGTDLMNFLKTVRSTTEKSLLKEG
Entries and their measured log10(IC50) follow.
Endpoint: log10(IC50) (log10 of the value in nM)

{"columns": ["Chemical string", "Study target", "Endpoint", "Measured result"],
 "data": [
  ["O/N=C(/CC1CCCCC1)Nc1ccc(F)c(Br)c1", "Indoleamine 2,3-dioxygenase 1 (Homo sapiens)", "log10(IC50)", 2.70],
  ["O=C(/C(=N/O)Nc1ccc(F)c(Br)c1)c1cccs1", "Indoleamine 2,3-dioxygenase 1 (Homo sapiens)", "log10(IC50)", 2.07],
  ["O=C(/C(=N/O)Nc1ccc(F)c(Br)c1)C1CCCCC1", "Indoleamine 2,3-dioxygenase 1 (Homo sapiens)", "log10(IC50)", 2.12],
  ["O=C(NC[C@H]1CC[C@H](C(=O)/C(=N/O)Nc2ccc(F)c(Br)c2)CC1)c1ccccc1", "Indoleamine 2,3-dioxygenase 1 (Homo sapiens)", "log10(IC50)", 1.90],
  ["O=C(/C(=N/O)Nc1ccc(F)c(Br)c1)C1CCN(S(=O)(=O)Nc2ccccc2)CC1", "Indoleamine 2,3-dioxygenase 1 (Homo sapiens)", "log10(IC50)", 1.99],
  ["O=C(/C(=N/O)Nc1ccc(F)c(Br)c1)c1ccccc1", "Indoleamine 2,3-dioxygenase 1 (Homo sapiens)", "log10(IC50)", 2.61],
  ["O=C(Nc1ccccc1)[C@H]1CC[C@H](C(=O)/C(=N/O)Nc2ccc(F)c(Br)c2)CC1", "Indoleamine 2,3-dioxygenase 1 (Homo sapiens)", "log10(IC50)", 2.18],
  ["O=C(/C(=N/O)Nc1ccc(F)c(Br)c1)C1CCN(C(=O)Nc2ccccc2)CC1", "Indoleamine 2,3-dioxygenase 1 (Homo sapiens)", "log10(IC50)", 1.60],
  ["NS(=O)(=O)N1CCC(C(=O)/C(=N/O)Nc2ccc(F)c(Br)c2)CC1", "Indoleamine 2,3-dioxygenase 1 (Homo sapiens)", "log10(IC50)", 1.80],
  ["O=C(/C(=N/O)Nc1ccc(F)c(Br)c1)C1CCN(C(=O)c2ccccc2)CC1", "Indoleamine 2,3-dioxygenase 1 (Homo sapiens)", "log10(IC50)", 2.03],
  ["O=C(/C(=N/O)Nc1ccc(F)c(Br)c1)c1cncs1", "Indoleamine 2,3-dioxygenase 1 (Homo sapiens)", "log10(IC50)", 1.71],
  ["O=C(/C(=N/O)Nc1ccc(F)c(Br)c1)C1CCN(S(=O)(=O)NCc2ccccc2)CC1", "Indoleamine 2,3-dioxygenase 1 (Homo sapiens)", "log10(IC50)", 1.38],
  ["O=C(/C(=N/O)Nc1ccc(F)c(Br)c1)C1CCN(C(=O)NCc2ccccc2)CC1", "Indoleamine 2,3-dioxygenase 1 (Homo sapiens)", "log10(IC50)", 1.63],
  ["O=C(/C(=N/O)Nc1ccc(F)c(Br)c1)C1CCN(c2ccccc2)CC1", "Indoleamine 2,3-dioxygenase 1 (Homo sapiens)", "log10(IC50)", 2.17],
  ["O=C(/C(=N/O)Nc1ccc(F)c(Br)c1)[C@H]1CC[C@H](NS(=O)(=O)Nc2ccccc2)CC1", "Indoleamine 2,3-dioxygenase 1 (Homo sapiens)", "log10(IC50)", 2.01],
  ["Cn1cc(-c2ccc(NC(=O)N3CCC(C(=O)/C(=N/O)Nc4ccc(F)c(Br)c4)CC3)cc2)cn1", "Indoleamine 2,3-dioxygenase 1 (Homo sapiens)", "log10(IC50)", 1.15],
  ["NS(=O)(=O)NC[C@H]1CC[C@H](C(=O)/C(=N/O)Nc2ccc(F)c(Br)c2)CC1", "Indoleamine 2,3-dioxygenase 1 (Homo sapiens)", "log10(IC50)", 2.30],
  ["O=C(/C(=N/O)Nc1ccc(F)c(Br)c1)c1ccco1", "Indoleamine 2,3-dioxygenase 1 (Homo sapiens)", "log10(IC50)", 2.67]
]}

###

We begin with a simple list: items and their reported half-life.
experiment: Half life in rat liver microsomes; format: ADME, Microsome
Endpoint: half-life (h)

{"columns": ["Chemical string", "Measured result"],
 "data": [
  ["NS(=O)(=O)N1CCC(C(=O)/C(=N/O)Nc2ccc(F)c(Br)c2)CC1", 1.56],
  ["NS(=O)(=O)NCCNc1nonc1C(=NO)Nc1ccc(F)c(Br)c1", 1.22]
]}

###

Form field: Cmax (one value per entry).
experiment: Cmax in C57BL/6 mouse at 3 mg/kg, po measured up to 24 hrs; assay type: ADME, organism-based; design: route oral, dose 3 mg/kg, time <=24; conditions: in vivo

{"columns": ["Chemical string", "Cmax / µg/mL"],
 "data": [
  ["NS(=O)(=O)NCCNc1nonc1C(=NO)Nc1ccc(F)c(Br)c1", 0.253],
  ["NS(=O)(=O)N1CCC(C(=O)/C(=N/O)Nc2ccc(F)c(Br)c2)CC1", 0.127]
]}

###

molecular target: Indoleamine 2,3-dioxygenase 1 (Homo sapiens); assay: Inhibition of IDO1 in IFNgamma-stimulated human HeLa cells using L-tryptophan as substrate measured after 48 hrs
log10 IC50 listing for selected compounds.
Endpoint: log10 IC50 (log10 of the value in nM)

{"columns": ["Chemical string", "Study target", "log10 IC50"],
 "data": [
  ["O/N=C(/CC1CCCCC1)Nc1ccc(F)c(Br)c1", "Indoleamine 2,3-dioxygenase 1 (Homo sapiens)", 2.76],
  ["O=C(/C(=N/O)Nc1ccc(F)c(Br)c1)c1cccs1", "Indoleamine 2,3-dioxygenase 1 (Homo sapiens)", 2.43],
  ["O=C(/C(=N/O)Nc1ccc(F)c(Br)c1)C1CCN(C(=O)NCc2ccccc2)CC1", "Indoleamine 2,3-dioxygenase 1 (Homo sapiens)", 1.45],
  ["O=C(Nc1ccccc1)[C@H]1CC[C@H](C(=O)/C(=N/O)Nc2ccc(F)c(Br)c2)CC1", "Indoleamine 2,3-dioxygenase 1 (Homo sapiens)", 2.29],
  ["O=C(/C(=N/O)Nc1ccc(F)c(Br)c1)c1cncs1", "Indoleamine 2,3-dioxygenase 1 (Homo sapiens)", 3.25],
  ["O=C(/C(=N/O)Nc1ccc(F)c(Br)c1)C1CCCCC1", "Indoleamine 2,3-dioxygenase 1 (Homo sapiens)", 1.80],
  ["O=C(/C(=N/O)Nc1ccc(F)c(Br)c1)c1ccccc1", "Indoleamine 2,3-dioxygenase 1 (Homo sapiens)", 3.16],
  ["O=C(NC[C@H]1CC[C@H](C(=O)/C(=N/O)Nc2ccc(F)c(Br)c2)CC1)c1ccccc1", "Indoleamine 2,3-dioxygenase 1 (Homo sapiens)", 2.31],
  ["O=C(/C(=N/O)Nc1ccc(F)c(Br)c1)C1CCN(c2ccccc2)CC1", "Indoleamine 2,3-dioxygenase 1 (Homo sapiens)", 3.01],
  ["NS(=O)(=O)N1CCC(C(=O)/C(=N/O)Nc2ccc(F)c(Br)c2)CC1", "Indoleamine 2,3-dioxygenase 1 (Homo sapiens)", 1.65]
]}

###

target: Tryptophan 2,3-dioxygenase (Homo sapiens); assay: Inhibition of human TDO expressed in Escherichia coli Rosetta using tryptophan as substrate incubated for 1 hr by methylene blue based assay
Sequence (P48775 whole entry): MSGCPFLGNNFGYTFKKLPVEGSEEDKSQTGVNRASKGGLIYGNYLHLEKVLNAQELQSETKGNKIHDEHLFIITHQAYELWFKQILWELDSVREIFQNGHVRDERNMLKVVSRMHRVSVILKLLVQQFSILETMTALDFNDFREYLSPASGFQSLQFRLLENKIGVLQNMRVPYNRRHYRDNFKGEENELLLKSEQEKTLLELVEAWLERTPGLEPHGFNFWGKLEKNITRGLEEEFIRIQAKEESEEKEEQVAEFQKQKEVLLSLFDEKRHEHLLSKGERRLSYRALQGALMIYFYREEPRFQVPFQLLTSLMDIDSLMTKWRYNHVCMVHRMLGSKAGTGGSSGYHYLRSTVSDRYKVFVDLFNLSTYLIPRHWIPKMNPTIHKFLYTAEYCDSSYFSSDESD

{"columns": ["Chemical string", "IC50"],
 "data": [
  ["O/N=C(/CC1CCCCC1)Nc1ccc(F)c(Br)c1", "> 100 µM"],
  ["O=C(Nc1ccccc1)[C@H]1CC[C@H](C(=O)/C(=N/O)Nc2ccc(F)c(Br)c2)CC1", "> 100 µM"],
  ["O=C(/C(=N/O)Nc1ccc(F)c(Br)c1)C1CCN(S(=O)(=O)NCc2ccccc2)CC1", "> 100 µM"]
]}
